# Run Description: self-splicing fitness, log relative to wild type (ln ratio); higher = more splicing; Tetrahymena group I intron in knt gene, E. coli kanamycin selection, DiMSum; sequences stand for … in CUCUCU…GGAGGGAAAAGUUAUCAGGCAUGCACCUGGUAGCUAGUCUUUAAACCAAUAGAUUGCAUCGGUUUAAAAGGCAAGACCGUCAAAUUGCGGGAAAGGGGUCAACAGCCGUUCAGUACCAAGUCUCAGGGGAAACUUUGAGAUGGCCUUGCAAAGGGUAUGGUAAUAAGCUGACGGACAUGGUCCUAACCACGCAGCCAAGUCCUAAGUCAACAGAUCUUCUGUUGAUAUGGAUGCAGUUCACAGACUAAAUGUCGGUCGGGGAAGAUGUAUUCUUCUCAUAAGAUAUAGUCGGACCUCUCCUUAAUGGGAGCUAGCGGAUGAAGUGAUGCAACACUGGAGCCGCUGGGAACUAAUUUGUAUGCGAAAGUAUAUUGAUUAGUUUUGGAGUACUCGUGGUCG;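 note: selection with 25 µg/mL kanamycin versus none on LB agar overnight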
# Test Parameters: 30 °C
Label rule, in plain words: self-splicing fitness (ln) of -3 and up is Satisfied, under -3 is Not satisfied.

INSERT INTO assay_data (seq_string, label) VALUES
  ('ACAAAGCAAUAUUACGUACA', 'Satisfied'),
  ('AGGCAGCAAUAUUACGCUCC', 'Not satisfied');

Could you tell me if the measured self-splicing fitness (ln) of CAGAAGCAAUAUUACGAGAG reaches -3 or more?
Satisfied

Could you tell me if the measured self-splicing fitness (ln) of AACCAGCAAUAUUACGGAUA reaches -3 or more?
Satisfied

Could you tell me if the measured self-splicing fitness (ln) of GUAAAGCAAUAUUACGCGCG reaches -3 or more?
Satisfied

Could you tell me if the measured self-splicing fitness (ln) of ACAGAGCAAUAUUACGUCUA reaches -3 or more?
Not satisfied

----------
# Run Description: self-splicing fitness, log relative to wild type (ln ratio); higher = more splicing; Tetrahymena group I intron in knt gene, E. coli kanamycin selection, DiMSum; sequences stand for … in CUCUCU…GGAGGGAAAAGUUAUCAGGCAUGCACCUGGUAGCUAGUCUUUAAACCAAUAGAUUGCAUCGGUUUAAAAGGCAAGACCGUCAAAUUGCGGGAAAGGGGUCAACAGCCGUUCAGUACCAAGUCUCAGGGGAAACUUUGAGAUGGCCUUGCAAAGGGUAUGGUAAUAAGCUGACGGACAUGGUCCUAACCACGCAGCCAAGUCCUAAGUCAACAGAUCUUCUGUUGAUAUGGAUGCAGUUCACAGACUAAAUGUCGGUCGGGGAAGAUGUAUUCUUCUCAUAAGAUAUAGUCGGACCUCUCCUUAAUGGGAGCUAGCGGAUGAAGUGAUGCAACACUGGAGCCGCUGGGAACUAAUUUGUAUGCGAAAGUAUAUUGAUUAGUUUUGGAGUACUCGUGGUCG
# Test Parameters: 37 °C
Give self-splicing fitness (ln) for every item shown.

Guide cases for self-splicing fitness (ln), answers given:
INSERT INTO results (seq_string, observed) VALUES
  ('AUAUAGCAAUAUUACGAGAA', -0.73),
  ('GAGCAGCAAUAUUACGGCCC', -1.09),
  ('GGUCAGCAAUAUUACGGGAU', -2.85);

# batch size: 2; output self-splicing fitness (ln) per entry
1. AACGAGCAAUAUUACGAUCU
2. AAGCAGCAAUAUUACGUGAG

1. -0.0761
2. -0.437
